tested on: CAMK2G; conditions: concentration: 1 μM, replicates: in singlicate; n = 1;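 also: KINOMEscan kinase panel screen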
Rule: %Inh under 10% gives -1, otherwise 1.

- compound: "Cn1ccc2ncnc(Oc3ccc(Nc4nc5ccccc5[nH]4)cc3)c21"
  cat: -1
- compound: "CC1=C(C(=O)Nc2cc3cn[nH]c3cc2F)C(c2ccc(C(F)(F)F)cc2)CC(=O)N1 (stereo not shown)"
  cat: 1
- compound: "C[C@@H]1CCCCN1c1cc(-c2ccc3c(N)n[nH]c3c2)nc(N)n1"
  cat: 1
- compound: "O=C(Nc1n[nH]c2nc(-c3nccs3)c(Br)cc12)C1CC1"
  cat: -1
- compound: "CCn1c(-c2cccnc2O)nc2cnccc21"
  cat: -1
- compound: "O=C(Nc1n[nH]c2cc(-c3cccc(F)c3F)ccc12)C1CC1"
  cat: -1
- compound: "Cc1cccc(-c2cc(Nc3ccncc3)c3ccccc3n2)n1"
  cat: 1
- compound: "O=c1cc(N2CCOCC2)nc2n(Cc3cccc(Cl)c3Cl)ccn12"
  cat: -1

Could you please find out whether `O=C(Nc1n[nH]c2nc(-c3nccs3)c(Br)cc12)C1CCCC1` has %Inh that meets 10% or exceeds it? 1

Textbook exercise: given the entry `CN1C(=O)C(Nc2ccc(Cl)c(C(=O)O)c2)=C(c2ccc(Cl)cc2)C1=O` , state whether its %Inh is greater than or equal to 10%. 1

* * *

tested on: MEK5; construct: gene MAP2K5; conditions: concentration: 1 μM, replicates: in singlicate; n = 1
The threshold is inclusive: %Inh of exactly 8% counts as true (1); values below receive false (0).

- smiles-structure: "NC(=O)c1nnc2ccccc2c1N"
  cat: "true (1)"
- smiles-structure: "COc1ccc(C2=C(Nc3cccc(C(=O)O)c3)C(=O)NC2=O)cc1"
  cat: "true (1)"
- smiles-structure: "COc1cc2ncnc(Nc3ccc4nc(-c5ccccc5)[nH]c4c3)c2cc1OC.Cl"
  cat: "true (1)"

# evaluate next
Evaluate `Cl.c1ccc(-c2n[nH]cc2-c2ccnc(-c3ccc(CN4CCOCC4)cc3)c2)nc1` : %Inh at minimum 8%? false (0)

* * *

tested on: YSK4; construct: gene MAP3K19; settings: concentration: 1 μM, replicates: in singlicate; n = 1
quantity-kind: %Inh (%)
Express it in %; write the number only.

Worked cases, %Inh given:
- compound: "Nc1nc(-c2nccs2)c(-c2ccnc3ccccc23)s1 [GW693542]"
  experimental-system: "YSK4"
  endpoint-unit: "%"
  %Inh: 28
- compound: "CN(C)CCN(C)C(=O)c1cc(-c2ccncc2)c(-c2ccc(Cl)c(O)c2)o1.Cl.Cl [SB-710397]"
  experimental-system: "YSK4"
  endpoint-unit: "%"
  %Inh: 57
- compound: "Cn1ccc2ncnc(Oc3ccc(NC(=O)Nc4ccccc4)cc3)c21"
  experimental-system: "YSK4"
  endpoint-unit: "%"
  %Inh: 93.1
- compound: "COC(=O)c1c(-c2ccccc2)c2cc(OC)ccc2c(=O)n1Cc1ccccc1"
  experimental-system: "YSK4"
  endpoint-unit: "%"
  %Inh: 0
- compound: "Cc1cccc(-c2nc(Nc3ccncc3)c3ccccc3n2)n1 [GW855857]"
  experimental-system: "YSK4"
  endpoint-unit: "%"
  %Inh: 0

Please tell me: %Inh of CCn1c(-c2ccccn2)nc2cnccc21 [SB-736398] , system YSK4? 44

Hi! What's the reported %Inh for Cl.NC(=O)c1cccc(Nc2nccc(Nc3ccc(Oc4cccc(Cl)c4)c(Cl)c3)n2)c1 [GW659008] on YSK4? 0

Request body: readout %Inh, system YSK4, query `O=C(Nc1ccccc1)Nc1cccc(Oc2ccc3nccn3n2)c1` . Return the value. 87

Reported %Inh for YSK4, given COc1cc2ncnc(Nc3ccc4nc(-c5ccccc5)[nH]c4c3)c2cc1OC.Cl [GW282450] ? 35
